Target: ATF4 (Homo sapiens, UniProt P18848)
Construct: made in house
Sequence (P18848 278-341 limits assumed): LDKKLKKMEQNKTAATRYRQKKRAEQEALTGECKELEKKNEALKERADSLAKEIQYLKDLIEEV
Experiment: Direct-binding FRET assay
Details: 4°C; C-terminal rhodamine design; mean or single; read-out: Kd
Where no end group is shown, it is not given here.
ASSAY_METRIC: pKd
Give bare numbers, as −log10 of the molar value.

                             query_sequence  recorded_value
0  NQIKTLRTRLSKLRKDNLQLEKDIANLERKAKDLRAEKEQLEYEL [ATF4-d1]            9.00

[ask] Bench note: what pKd did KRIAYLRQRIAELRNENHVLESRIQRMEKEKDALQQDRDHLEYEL [ATF5-d1] show?
[reply] 9.00

###

Biological target: NFE2L1 (Homo sapiens, UniProt Q14494)
Sequence (Q14494 654-717 limits assumed): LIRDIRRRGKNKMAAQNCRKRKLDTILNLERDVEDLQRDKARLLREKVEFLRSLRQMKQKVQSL
Experiment: Direct-binding FRET assay
Design: made in house
Details: 23°C; N-terminal rhodamine design; repeat 2; read-out: Kd
Where no end group is shown, it is not given here.
ASSAY_METRIC: Kd

[ask] # value lookup — system NFE2L1 (Homo sapiens, UniProt Q14494), readout Kd, item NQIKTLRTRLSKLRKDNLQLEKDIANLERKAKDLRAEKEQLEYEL [ATF4-d1]
[reply] > 1000 nM

###

Molecular target: CREB3L1 (Homo sapiens)
Construct: made in house
Sequence (Q96BA8 290-353 limits assumed): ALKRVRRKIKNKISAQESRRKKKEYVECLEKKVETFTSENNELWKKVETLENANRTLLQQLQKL
Test: Direct-binding FRET assay
Conditions: 37°C; C-terminal rhodamine design; mean or single; read-out: Kd
pKd: −log10 of the molar value. Where no end group is shown, it is not given here.
ASSAY_METRIC: pKd

                             query_sequence  recorded_value
0  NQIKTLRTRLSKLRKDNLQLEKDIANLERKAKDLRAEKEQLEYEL [ATF4-d1]          < 6.00

With those in mind, consider the next sequence.
[ask] Bench note: what pKd did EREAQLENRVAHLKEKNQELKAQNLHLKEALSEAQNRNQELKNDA [XBP1-d1] show?
[reply] < 6.00

###

Target: FOSL1 (Homo sapiens, UniProt P15407)
Construct: made in house
Sequence (P15407 105-168 limits assumed): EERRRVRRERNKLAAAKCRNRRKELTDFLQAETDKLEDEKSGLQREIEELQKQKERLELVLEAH
Assay: Direct-binding FRET assay
Details: 37°C; C-terminal rhodamine design; mean or single; read-out: Kd
Where no end group is shown, it is not given here.
Would you kindly list Kd for each of these sequences?

Before answering, review these 2 worked examples.
>>> df
                             query_sequence  recorded_value
0  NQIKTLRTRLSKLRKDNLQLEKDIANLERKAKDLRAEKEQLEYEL [ATF4-d1]       > 1000 nM
1  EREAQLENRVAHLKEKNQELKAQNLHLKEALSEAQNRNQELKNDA [XBP1-d1]       > 1000 nM

[ask] Bench note: what Kd did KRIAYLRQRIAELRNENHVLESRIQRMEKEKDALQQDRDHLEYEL [ATF5-d1] show?
[reply] > 1000 nM

###

Target: BATF2 (Homo sapiens, UniProt Q8N1L9)
Construct: made in house
Sequence (Q8N1L9 17-80 limits assumed): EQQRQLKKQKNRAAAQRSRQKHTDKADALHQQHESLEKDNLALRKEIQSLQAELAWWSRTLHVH
Assay: Direct-binding FRET assay
Details: 37°C; N-terminal rhodamine design; mean or single; read-out: Kd
Where no end group is shown, it is not given here.
ASSAY_METRIC: Kd

Before answering, review these 2 worked examples.
                             query_sequence  assay_metric  recorded_value
0  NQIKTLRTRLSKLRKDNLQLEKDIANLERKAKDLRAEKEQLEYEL [ATF4-d1]            Kd          > 1 µM
1  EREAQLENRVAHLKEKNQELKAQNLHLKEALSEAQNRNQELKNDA [XBP1-d1]            Kd          > 1 µM

With those in mind, consider the next sequence.
[ask] Bench note: what Kd did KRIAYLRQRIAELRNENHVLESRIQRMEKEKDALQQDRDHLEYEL [ATF5-d1] show?
[reply] > 5 µM

Cited source for all entries: paper PMC4335062
